target: human CYP11B1 (Homo sapiens); assay: Inhibition of hCYP11B1 in transfected V79 cells; settings: hamster V79 cells expressing human CYP11B1; substrate 11-deoxycortisol 200 nM
Sequence (P15538 25-503): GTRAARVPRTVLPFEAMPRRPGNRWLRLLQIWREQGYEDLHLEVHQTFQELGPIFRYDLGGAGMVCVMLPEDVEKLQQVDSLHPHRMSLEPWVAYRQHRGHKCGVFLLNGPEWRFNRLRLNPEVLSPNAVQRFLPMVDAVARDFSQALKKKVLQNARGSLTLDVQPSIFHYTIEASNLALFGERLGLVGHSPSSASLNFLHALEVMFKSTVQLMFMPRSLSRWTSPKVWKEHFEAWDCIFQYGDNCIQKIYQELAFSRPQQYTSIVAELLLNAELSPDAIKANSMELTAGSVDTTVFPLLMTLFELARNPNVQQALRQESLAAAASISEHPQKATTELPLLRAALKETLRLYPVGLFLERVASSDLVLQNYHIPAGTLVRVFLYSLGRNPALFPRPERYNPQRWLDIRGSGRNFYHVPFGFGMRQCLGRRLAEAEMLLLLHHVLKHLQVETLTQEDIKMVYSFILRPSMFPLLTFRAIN
Property Label: IC50 (nM)
All answers are understood in nM, so give the number only.

INPUT: Hello, please tell me recorded IC50 for this one: CC(=O)Nc1ccccc1C(=O)N1CCSc2c(-c3ccc(C#N)cc3)cncc21
OUTPUT: 1540

INPUT: Hello, please tell me recorded IC50 for this one: N#Cc1ccc(S(=O)(=O)N2CCSc3c(-c4ccc5[nH]ncc5c4)cncc32)cc1
OUTPUT: 14

INPUT: Hello, please tell me recorded IC50 for this one: O=C(C1CN(Cc2cccc(F)c2)C1)N1CCOc2c(N3CCn4cnnc4C3)cncc21
OUTPUT: 4130

INPUT: Hello, please tell me recorded IC50 for this one: Cc1ccc(S(=O)(=O)N2CC(C(=O)N3CCOc4c(-c5ccc(C#N)cc5)cncc43)C2)cc1
OUTPUT: 521

INPUT: Hello, please tell me recorded IC50 for this one: COc1ccc(S(=O)(=O)N2CCSc3c(-c4ccsc4)cncc32)cc1
OUTPUT: 30.4

INPUT: Hello, please tell me recorded IC50 for this one: N#Cc1ccc(-c2cncc3c2CCN3C(=O)Cc2ccccc2F)cc1
OUTPUT: 277

INPUT: Hello, please tell me recorded IC50 for this one: N#Cc1ccc(-c2cncc3c2OCCN3S(=O)(=O)C2CC(Cc3ccccc3)=NO2)cc1 (stereo not drawn)
OUTPUT: 79

INPUT: Hello, please tell me recorded IC50 for this one: N#Cc1ccc(-c2cncc3c2CCN3S(=O)(=O)c2ccc(Cl)nc2)cc1
OUTPUT: 1.1

INPUT: Hello, please tell me recorded IC50 for this one: N#Cc1ccc(-c2cncc3c2CCN3C(=O)c2cccc(C#N)c2)cc1
OUTPUT: 766

INPUT: Hello, please tell me recorded IC50 for this one: COc1ccc(C(=O)N2CC(C(=O)N3CCOc4c(-c5ccc(C#N)cc5)cncc43)C2)cc1
OUTPUT: 195

INPUT: Hello, please tell me recorded IC50 for this one: N#Cc1ccc(-c2cncc3c2SCCN3S(=O)(=O)C2CN(S(=O)(=O)c3cccc(C#N)c3)C2)cc1
OUTPUT: 32

INPUT: Hello, please tell me recorded IC50 for this one: COC(=O)c1ccc(C(=O)N2CCc3c(-c4ccc(C#N)cc4)cncc32)cc1
OUTPUT: 19

INPUT: Hello, please tell me recorded IC50 for this one: N#Cc1ccc(-c2cncc3c2OCCN3C(=O)CCc2ccc(F)cc2)cc1
OUTPUT: 52

INPUT: Hello, please tell me recorded IC50 for this one: O=S(=O)(N1CCn2cnnc2C1)N1CCSc2c(-c3cc4cc(Cl)ccc4o3)cncc21
OUTPUT: 3710

INPUT: Hello, please tell me recorded IC50 for this one: N#Cc1ccc(-c2cncc3c2CCN3S(=O)(=O)c2cccc([N+](=O)[O-])c2)cc1
OUTPUT: 0.5

INPUT: Hello, please tell me recorded IC50 for this one: N#Cc1ccc(-c2cncc3c2OCCN3S(=O)(=O)C2CN(Cc3cccc(C#N)c3)C2)cc1
OUTPUT: 29

INPUT: Hello, please tell me recorded IC50 for this one: N#Cc1ccc(-c2cncc3c2SCCN3S(=O)(=O)C2CN(C(=O)c3cccc(F)c3)C2)cc1
OUTPUT: 73

INPUT: Hello, please tell me recorded IC50 for this one: N#Cc1ccc(-c2cncc3c2SCCN3C(=O)c2cccc(C(F)(F)F)c2)cc1
OUTPUT: 522

INPUT: Hello, please tell me recorded IC50 for this one: Cc1cccc(C(=O)N2CCSc3c(-c4ccc(C#N)cc4)cncc32)c1
OUTPUT: 3650

INPUT: Hello, please tell me recorded IC50 for this one: Cc1ccccc1CC(=O)N1CCOc2c(-c3ccc(C#N)cc3)cncc21
OUTPUT: 84

INPUT: Hello, please tell me recorded IC50 for this one: N#Cc1ccc(-c2cncc3c2OCCN3C(=O)c2cccc([N+](=O)[O-])c2)cc1
OUTPUT: 1200

INPUT: Hello, please tell me recorded IC50 for this one: COc1ccc(S(=O)(=O)N2CC(S(=O)(=O)N3CCSc4c(-c5ccc(C#N)cc5)cncc43)C2)cc1
OUTPUT: 38

INPUT: Hello, please tell me recorded IC50 for this one: N#Cc1ccc(-c2cncc3c2OCCN3S(=O)(=O)c2ccc(C(F)(F)F)cc2)cc1
OUTPUT: 2

INPUT: Hello, please tell me recorded IC50 for this one: Cc1cccc(S(=O)(=O)N2CCc3c(-c4ccc(C#N)cc4)cncc32)c1
OUTPUT: 0.25

INPUT: Hello, please tell me recorded IC50 for this one: N#Cc1ccc(-c2cncc3c2OCCN3C(=O)CNC(=O)c2ccc(F)cc2)cc1
OUTPUT: 276

INPUT: Hello, please tell me recorded IC50 for this one: N#Cc1ccc(-c2cncc3c2OCCN3S(=O)(=O)C2CN(Cc3cccc(F)c3)C2)cc1
OUTPUT: 59

INPUT: Hello, please tell me recorded IC50 for this one: N#Cc1ccc(-c2cncc3c2OCCN3C(=O)CCc2cccc(F)c2)cc1
OUTPUT: 117

INPUT: Hello, please tell me recorded IC50 for this one: COc1ccc(S(=O)(=O)N2CCSc3c(-c4ccc(C#N)c(F)c4)cncc32)cc1
OUTPUT: 0.35

INPUT: Hello, please tell me recorded IC50 for this one: COc1cccc(CN2CC(S(=O)(=O)N3CCSc4c(-c5ccc(C#N)cc5)cncc43)C2)c1
OUTPUT: 37

INPUT: Hello, please tell me recorded IC50 for this one: CC(=O)N1CCc2cc(S(=O)(=O)N3CCSc4c(-c5cc6cc(Cl)ccc6o5)cncc43)ccc21
OUTPUT: 27

INPUT: Hello, please tell me recorded IC50 for this one: COc1ccc(S(=O)(=O)N2CCSc3c(-c4ccc(F)cc4)cncc32)cc1
OUTPUT: 19

INPUT: Hello, please tell me recorded IC50 for this one: N#Cc1ccc(-c2cncc3c2SCCN3S(=O)(=O)C2CN(S(=O)(=O)c3ccc(F)cc3)C2)cc1
OUTPUT: 22

INPUT: Hello, please tell me recorded IC50 for this one: COc1ccc(CN2CC(S(=O)(=O)N3CCSc4c(-c5ccc(C#N)cc5)cncc43)C2)cc1
OUTPUT: 57

INPUT: Hello, please tell me recorded IC50 for this one: COc1ccccc1C(=O)N1CCc2c(-c3ccc(C#N)cc3)cncc21
OUTPUT: 284

INPUT: Hello, please tell me recorded IC50 for this one: N#Cc1ccc(-c2cncc3c2OCCN3C(=O)c2ccc([N+](=O)[O-])cc2)cc1
OUTPUT: 1450

INPUT: Hello, please tell me recorded IC50 for this one: N#Cc1ccc(S(=O)(=O)N2CCSc3c(-c4ccc5ncsc5c4)cncc32)cc1
OUTPUT: 322
